Measured IC50 accompanies every entry in the list below.
MEASURED_ON: human CGT (Homo sapiens)
Sequence (Q16880 21-541): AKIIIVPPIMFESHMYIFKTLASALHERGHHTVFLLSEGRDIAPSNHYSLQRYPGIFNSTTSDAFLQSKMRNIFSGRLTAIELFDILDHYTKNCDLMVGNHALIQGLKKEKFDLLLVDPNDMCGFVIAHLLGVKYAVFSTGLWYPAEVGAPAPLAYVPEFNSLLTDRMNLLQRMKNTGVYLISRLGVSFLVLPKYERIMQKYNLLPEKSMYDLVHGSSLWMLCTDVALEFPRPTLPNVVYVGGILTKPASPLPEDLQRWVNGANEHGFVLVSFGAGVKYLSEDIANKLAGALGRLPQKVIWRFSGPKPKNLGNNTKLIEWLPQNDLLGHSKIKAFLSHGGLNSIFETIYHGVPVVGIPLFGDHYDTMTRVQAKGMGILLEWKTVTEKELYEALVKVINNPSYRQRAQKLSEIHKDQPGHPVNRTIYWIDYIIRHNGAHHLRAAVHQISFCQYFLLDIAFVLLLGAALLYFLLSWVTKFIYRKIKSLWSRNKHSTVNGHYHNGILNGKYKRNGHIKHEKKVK
EXPERIMENT: CGT Enzyme Assay (Biological Example 2, RapidFire/MS/MS method with 0.01% Tween 80 added)
Assay type: biochemical
ASSAY_CONDITIONS: enzymatic assay, CHO/CGT lysate

COMPOUND | IC50
O=C1N(c2ccc(Cl)cc2)[C@@H]2CCC[C@]2(c2cccc(C(F)F)c2)N1c1ccc(Cl)cc1 [Example 16-2] | 10 to 30 µM
O=C1N(c2ccc(Cl)cc2)[C@H]2CCC[C@@]2(c2cccc(OC(F)F)c2)N1c1ccc(Cl)cc1 [Example 23-1] | 10 to 30 µM
CC1(C)[C@H](c2cccc(Cl)c2)N(c2ccc(Cl)cc2)C(=O)N1c1ccc(Cl)cc1 [Example 8-2] | < 1 µM
N#Cc1ccc(N2C(=O)N(c3ccc(Cl)cc3)C3(COC3)[C@@H]2c2cccc(OC(F)(F)F)c2)cc1 [Example 47-2] | < 1 µM
N#Cc1cccc([C@@]23CCCC[C@@H]2N(c2ccc(Cl)cc2)C(=O)N3c2ccc(Cl)cc2)c1 [Example 14-2] | 10 to 30 µM
Cc1cccc(C2C(C)N(c3ccc(Cl)cc3)C(=O)N2c2ccc(Cl)cc2)c1 (stereo not shown) [Example 3] | 30 to 100 µM
CCC[C@@]1(C)[C@H](c2cccc(OC(F)(F)F)c2)N(c2ccc(C#N)cc2)C(=O)N1c1ccc(C#N)cc1 [Example 52-5] | < 1 µM
